Tested on: PLK1;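 further: KINOMEscan kinase panel screen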
Settings: concentration: 1 μM, replicates: in singlicate; n = 1
Property: %Inh (%)
State the answer as a number, implicitly in %.

>>> print(df.to_string())
                                   compound  reading
0  CNc1nc(-c2ccc3c(N)n[nH]c3c2)cc(N2C[C@@H](C(=O)NC3CCCCC3)OC[C@H]2C)n1        3

Query: Requested field: %Inh. Item: Cc1ccc(-c2nc(Nc3ccncc3)c3ccccc3n2)s1
Response: 0

Query: Continue with Cc1cccc2c(-c3ccncn3)c(-c3ccc(F)cc3)nn12
Response: 0

Query: Continue with FC(F)(F)c1ccccc1-c1cc(-c2c[nH]nc2-c2ccccn2)ccn1
Response: 1
